- ASSAY TARGET: Axl (Homo sapiens, UniProt P30530)
- Sequence (P30530 26-894): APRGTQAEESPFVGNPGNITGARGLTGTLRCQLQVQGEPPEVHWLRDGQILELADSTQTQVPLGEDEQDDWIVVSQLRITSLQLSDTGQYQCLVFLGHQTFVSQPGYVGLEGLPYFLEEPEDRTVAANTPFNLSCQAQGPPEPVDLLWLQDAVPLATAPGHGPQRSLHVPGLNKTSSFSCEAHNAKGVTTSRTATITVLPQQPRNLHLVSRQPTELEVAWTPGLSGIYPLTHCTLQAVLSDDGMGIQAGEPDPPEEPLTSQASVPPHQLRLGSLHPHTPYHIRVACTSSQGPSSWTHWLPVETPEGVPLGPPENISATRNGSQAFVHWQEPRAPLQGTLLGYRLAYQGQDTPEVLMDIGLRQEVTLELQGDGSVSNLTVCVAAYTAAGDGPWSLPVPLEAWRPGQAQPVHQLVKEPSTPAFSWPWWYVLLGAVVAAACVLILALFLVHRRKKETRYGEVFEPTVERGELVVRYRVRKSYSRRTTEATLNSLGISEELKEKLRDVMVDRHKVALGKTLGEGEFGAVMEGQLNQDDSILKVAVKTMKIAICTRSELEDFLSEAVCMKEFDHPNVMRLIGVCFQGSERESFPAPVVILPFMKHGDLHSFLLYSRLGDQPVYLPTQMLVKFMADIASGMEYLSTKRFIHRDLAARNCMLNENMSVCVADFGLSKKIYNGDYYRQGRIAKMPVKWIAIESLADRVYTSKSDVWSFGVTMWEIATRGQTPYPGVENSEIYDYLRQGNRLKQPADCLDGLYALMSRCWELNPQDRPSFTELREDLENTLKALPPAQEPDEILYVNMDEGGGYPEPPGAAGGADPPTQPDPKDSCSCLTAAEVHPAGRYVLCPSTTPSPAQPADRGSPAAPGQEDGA
- PROTOCOL NOTES: Axl NanoBRET intracellular kinase assay (intracellular binding, Cell Binding)
- Set-up: host or cells: HEK-293
- CONDITION DETAILS: HEK-293 cells transfected with Axl-NanoLuc fusion vector; 0.35 μM K-5 NanoBRET tracer
Exercise: state measured IC50 for each of the compounds provided.

Tell me measured IC50 for C[C@@H]1CCCN1[C@H]1CCc2cc(-c3cnc4[nH]nc(-c5ccc(S(=O)(=O)C6CC6)cc5)c4c3)cnc2CC1 [Example 102] please.
> 1 µM

Tell me measured IC50 for CC(C)(O)c1ccc(-c2n[nH]c3ncc(-c4ccc5c(n4)CCC(N4CCCC4)CC5)cc23)cc1Cl (stereo not shown) [Example 60] please.
> 1 µM

Tell me measured IC50 for C[C@@H]1CCCN1C1(C)CCc2ccc(-c3cnc4[nH]nc(-c5ccc(S(=O)(=O)N6CCC6)cc5)c4c3)cc2CC1 (stereo partly shown) [Example 104] please.
< 0.1 µM

Tell me measured IC50 for C[C@@H]1CCCN1C1(C)CCc2ccc(-c3cnc4[nH]nc(-c5ccc(N6CCOCC6)cc5)c4c3)cc2CC1 (stereo partly shown) [Example 107] please.
> 1 µM
